Quick reference for TGI among some compounds
Tested on: UO-31 renal
assay-summary: NCI tumour cell line growth inhibition, 48 h

1. CN1CCc2c(c3ccccc3c3ccccc23)C1    17.2 µM
2. Cc1cc(NS(=O)(=O)c2ccc(NC(=O)c3cccn4c(=O)c5ccccc5nc34)cc2)no1    > 100 µM
3. CCOC(=O)C(=O)Nc1ccc(C)c(C)c1    > 100 µM
4. CN(C)CCCNC(=O)N/N=C/c1ccc([N+](=O)[O-])cc1    > 100 µM
5. Clc1ccc(-c2cc(-c3cc(-c4ccc(Cl)cc4)n[nH]3)[nH]n2)cc1    > 100 µM
6. CC1=NCCc2cc3[nH]c4ccccc4c3cc21    54.9 µM
7. CCOc1nc(-c2ccccc2)cc2c(O)c(C(=O)N/N=C/c3ccc(O)cc3O)[nH]c(=O)c12    16 µM
8. COc1ccc(/C=N/c2nc3cc4sc(/N=C/c5ccc(OC)cc5)nc4cc3s2)cc1    > 100 µM

Fill in the blank: the reported TGI of COc1ccc(C2C(Cl)C(=O)N2NC(=O)c2ccc(N)cc2)cc1 (stereo unspecified) is ____.
> 100 µM

Fill in the blank: the reported TGI of O=C(O)CNC(=O)C(CS)Cc1ccccc1 (stereo unspecified) is ____.
> 25 µM

Fill in the blank: the reported TGI of c1ccc2c(c1)nc1n2sc2nc3ccccc3n21 is ____.
> 100 µM

----------
System: SNB-19 CNS
assay-summary: NCI tumour cell line growth inhibition, 48 h
measure-name: TGI

1. CCOc1nc(-c2ccccc2)cc2c(O)c(C(=O)N/N=C/c3ccc(O)cc3O)[nH]c(=O)c12    > 46.8 µM
2. O=C(Cn1ccnc1[N+](=O)[O-])c1ccccc1    > 100 µM
3. N=C(N)N=Nc1ccc(NN=C(N)N)c2c1ncc1c2nc2sccn21    > 100 µM

Continue with the compound presented below.
Fill in the blank: the reported TGI of COC1CC(OC2C(C)OC(OC3C(C)OC(OC4C(C)OC(O[C@H]5CC[C@@]6(C)C(=CC[C@]7(O)[C@@H]6C[C@@H](OC(=O)/C=C(\C)C(C)C)[C@@]6(C)[C@]7(O)CC[C@@]6(O)C(C)=O)C5)CC4OC)CC3OC)CC2OC)OC(C)C1O (some centres undefined) is ____.
> 12.5 µM

----------
Quick reference for TGI among some compounds
Tested on: ACHN renal
assay-summary: NCI tumour cell line growth inhibition, 48 h
Where a SMILES comes first, the peptide text is derived from it. The star is where a group is joined. Boc = CC(C)(C)OC(=O)*

Solved cases (8 shown):
1. COc1cccc(/C=C2\CCC(CCN(C)C)(C3=CCCC3)C2=O)c1 (centres undefined)    30.5 µM
2. O=C(CC1=Nc2nnc(CCCCCCCc3nnc4n3C(=O)C(CC(=O)c3ccccc3)=N4)n2C1=O)c1ccccc1    > 100 µM
3. Clc1ccccc1/C=C\C1(c2ccccc2)OCCO1    31.4 µM
4. O=C1OCC=C1COC1OC(CO)C(O)C(O)C1O (centres undefined)    > 100 µM
5. O=C1C2c3[nH]c4ccccc4c3C3CCCC3C2C(=O)N1c1ccccc1 (centres undefined)    > 100 µM
6. O=c1c2cc([N+](=O)[O-])ccc2[nH]n1Cc1ccccn1    > 100 µM
7. O=C1CC(=O)NC(=NN2C(=O)CSC2c2ccccc2)N1 (centres undefined)    > 100 µM
8. CC(C)(C)OC(=O)NC(Cc1ccc(O)cc1)C(=O)NC(CCCCN)C(=O)O (stereo not drawn) (Boc-Tyr-Lys-OH; configuration not given here)    65.1 µM

Fill in the blank: the reported TGI of COc1ccc2[nH]c(-c3ccccc3)c(/C=C(\C#N)S(=O)(=O)c3ccccc3)c2c1 is ____.
> 100 µM

----------
System: KM20L2 colon
assay-summary: NCI tumour cell line growth inhibition, 48 h
measure-name: TGI

1) CCc1cccc(C)c1NC(=O)C1=C(C)NC(C)=C(C(=O)Nc2c(C)cccc2CC)C1c1ccc([N+](=O)[O-])cc1    > 100 µM
2) O=C(COc1ccc(/C=C/C(=O)c2ccc(Cl)cc2)cc1)Nc1c(Cl)cccc1Cl    > 100 µM
3) COc1ccc(NC(=O)/C(Cc2nc3ccccc3[nH]c2=O)=N\O)c(OC)c1    > 100 µM

Continue with the compound presented below.
Which measured TGI belongs to CCOC(=O)C1=C(NC(C)(C)C)OC/C1=N\NC(=O)Cc1ccccc1 , tested on KM20L2 colon?
> 100 µM

----------
System: UO-31 renal
assay-summary: NCI tumour cell line growth inhibition, 48 h
measure-name: log10 of TGI (log10 of the value in µM)
// units: µM (pre-log); metric: TGI; scale: log10

1. ClCc1ccc(-c2ccc(Cn3cnc4nc(Cl)nc(Cl)c43)cc2)cc1    1.53
2. O=C(Oc1ccc(S(=O)(=O)F)cc1F)c1ccccc1Cl    1.60

Fill in the blank: the reported log10 of TGI of COc1ccc2[nH]c(-c3ccccc3)c(/C=C(\C#N)S(=O)(=O)c3ccccc3)c2c1 is ____.
1.54

Fill in the blank: the reported log10 of TGI of COc1cccc2c1C(=O)c1c(O)c3c(c(O)c1C2=O)C[C@@](O)(C(C)O)C[C@@H]3OC1CC(N)C(O)C(C)O1 (stereo not given in full) is ____.
1.99

Fill in the blank: the reported log10 of TGI of CC(C)(C)OC(=O)C1C(=O)NC(=O)CC1CC(OCc1ccccc1)C(COCc1ccccc1)OCc1ccccc1 (stereo not given) is ____.
0.78

----------
System: HCC-2998 colon
assay-summary: NCI tumour cell line growth inhibition, 48 h
*1 amine or outer side, *2 acyl side, *3 side chain or, on linkers, in order; H or OH if unused. Where a SMILES comes first, the peptide text is derived from it. Bridges are numbered along the chain shown (N, C = ends). [ ]: non-standard residue; d: D form. Adda = CO[C@@H](Cc1ccccc1)[C@@H](C)/C=C(C)/C=C/[C@H](N[*:1])[C@H](C)C(=O)[*:2]; dAsp(3S-Me) = C[C@H](C(=O)[*:3])[C@@H](N[*:1])C(=O)[*:2]; d(γGlu) = O=C(O)[C@@H](CCC(=O)[*:2])N[*:1]; NMeDha = C=C(NC)C(=O)O
measure-name: TGI

Solved cases (10 shown):
1. O=C(CC1C(=O)Nc2ccccc2S1=O)Nc1ccccc1 (stereo not given)    > 100 µM
2. S=C(S)N1CCN(c2cccc(Cl)c2)CC1    > 100 µM
3. C=C1C(=O)N[C@H](C)C(=O)N[C@@H](CC(C)C)C(=O)N[C@@H](C(=O)O)[C@H](C)C(=O)N[C@@H](CCCN=C(N)N)C(=O)N[C@@H](/C=C/C(C)=C/[C@H](C)[C@H](Cc2ccccc2)OC)[C@H](C)C(=O)N[C@@H](C(=O)O)CCC(=O)N1C (R[Adda][d(γGlu)][NMeDha][dA]L[dAsp(3S-Me)]-OH; lactam N-7)    > 5 µM
4. CC(C)(CN1CCCCC1)C(/C=C/c1ccc(Cl)c(Cl)c1)=N\NC(=O)N/N=C(/C=C/c1ccc(Cl)c(Cl)c1)C(C)(C)CN1CCCCC1    3.12 µM
5. O=C(Nc1ccc(CN2CCOCC2)cc1)c1ccc(-c2cc(Cl)ccc2Cl)o1    23 µM
6. O=C1Nc2ccccc2C1=Nc1ccc(S(=O)(=O)Nc2nccs2)cc1    > 100 µM
7. O=C1C=CC(=O)N1C1CCCCCCCCCCC1    > 73.8 µM
8. CN1C(=O)CC2CCCN2C1=O (stereo not given)    > 100 µM
9. O=C(O)c1cccc2cccc(-c3c4ccc(=O)cc-4oc4cc(O)ccc34)c12    > 100 µM
10. CCC(C)CN1C(=O)NC(Cc2ccccc2)C1=O (stereo not given)    > 100 µM

Fill in the blank: the reported TGI of O=P(O)(NCCCl)NCCCl is ____.
> 100 µM

Fill in the blank: the reported TGI of [C-]#[N+][C@@H]1C2[C@H](CC[C@@]1(C)O)C(=C)CC[C@@H]2[C@@]1(C)CC[C@H](Cl)C(C)(C)O1 (stereo not given in full) is ____.
36.7 µM

----------
Tested on: ACHN renal
assay-summary: NCI tumour cell line growth inhibition, 48 h
measure-name: TGI

Solved cases (2 shown):
1) CC(C)(C)C(=O)N(C(=S)OCc1ccccn1)c1ccccc1    > 100 µM
2) CC(=O)O[C@H]1CCC2(C)C(=CCC3C2CCC2(C)/C(=N/OC(=O)c4ccc(N(CCCl)CCCl)cc4)CCC32)C1 (stereo not given in full)    > 100 µM

Fill in the blank: the reported TGI of CCCCN1CCN(c2ccc3nc(-c4ccc5nc(-c6ccc(OC)c(OC)c6)[nH]c5c4)[nH]c3c2)CC1 is ____.
12.4 µM

Fill in the blank: the reported TGI of CC(=O)NCCc1c(-c2[nH]c3ccccc3c2CCNC(C)=O)[nH]c2ccccc12 is ____.
> 100 µM

Fill in the blank: the reported TGI of C/C(=N\NC1=NCCN1)c1cn(C2=NCCN2)nc1C is ____.
> 100 µM
